Task for the reader: assign each of the following compounds its reported pIC50.
biological target: human SOS1 (nucleotide exchange of K-Ras^G12C) (Homo sapiens); experiment: Biochemical assay 2: K-Ras^G12C activation assay by hSOS1 at high GTP concentration (HTRF); conditions: E-notation values; unit inferred; 50 μM GTP; read-out: Assay 2 (KRAS-Activation, high GTP) IC50
Recall that pIC50 is obtained by taking minus log10 of the concentration measured in molar.

Tested on human SOS1 (nucleotide exchange of K-Ras^G12C) (Homo sapiens), the item COc1cc2nc(C)nc(NC(C)c3ccc(-c4c(Cl)cccc4CNC(=O)OC(C)(C)C)s3)c2cc1OC (centres unmarked) showed pIC50 equal to 6.25

Sample C#CC(O)c1ccccc1-c1ccc(C(C)Nc2nc(C)nc3cc(OC)c(OC)cc23)s1 (centres unmarked) , system: human SOS1 (nucleotide exchange of K-Ras^G12C) (Homo sapiens). Its pIC50 is 5.98

With human SOS1 (nucleotide exchange of K-Ras^G12C) (Homo sapiens) as the test system, COc1cc(C)c2nc(C)nc(N[C@H](C)c3cccc(Cl)c3)c2c1 showed pIC50 of 5.94

Tested on human SOS1 (nucleotide exchange of K-Ras^G12C) (Homo sapiens): Cc1nc(N[C@H](C)c2cccc(Cl)c2)c2cc(C(C)(C)O)ccc2n1 . Observed pIC50: 5.92

// returns pIC50 for Cc1nc(NC(C)c2ccc(-c3ccccc3CN(C)C)s2)c2cc([N+](=O)[O-])ccc2n1 (centres unmarked) with human SOS1 (nucleotide exchange of K-Ras^G12C) (Homo sapiens); value = 6.65

COc1cc2nc(C)nc(NC(C)c3ccc(-c4ccc(Cl)cc4CN)s3)c2cc1OC (centres unmarked) tested on human SOS1 (nucleotide exchange of K-Ras^G12C) (Homo sapiens) gave pIC50: 7.20

Sample COc1ccc(-c2ccc(C(C)Nc3nc(C)nc4cc(OC)c(OC)cc34)s2)c(CN(C)C)c1 (centres unmarked) , system: human SOS1 (nucleotide exchange of K-Ras^G12C) (Homo sapiens). Its pIC50 is 6.84

Record for COC(=O)c1ccc2nc(C)nc(N[C@H](C)c3cccc(Cl)c3)c2c1 under target or system human SOS1 (nucleotide exchange of K-Ras^G12C) (Homo sapiens): pIC50 reported as 5.62

Measured on human SOS1 (nucleotide exchange of K-Ras^G12C) (Homo sapiens), Cc1nc(N[C@H](C)c2cccc(Cl)c2)c2cc(CO)ccc2n1 has a documented pIC50 of 5.21

Let me check: CNC(=O)Nc1ccc2nc(C)nc(NC(C)c3ccc(-c4ccccc4CN(C)C)s3)c2c1 (centres unmarked) , system human SOS1 (nucleotide exchange of K-Ras^G12C) (Homo sapiens), measured pIC50 is 6.17

Item COc1ccc(-c2ccc(C(C)Nc3nc(C)nc4cc(OC)c(OC)cc34)s2)c(C)c1 (centres unmarked) was tested on human SOS1 (nucleotide exchange of K-Ras^G12C) (Homo sapiens); the reported pIC50 is 6.04

Record Cc1nc(N[C@H](C)c2cccc(Cl)c2)c2cc(-c3cn[nH]c3)ccc2n1 / human SOS1 (nucleotide exchange of K-Ras^G12C) (Homo sapiens), pIC50 recorded as 6.35

pIC50 of COc1cc2nc(C)nc(NC(C)c3sc(-c4ccccc4CN)cc3Cl)c2cc1OC (centres unmarked) , assay on human SOS1 (nucleotide exchange of K-Ras^G12C) (Homo sapiens), is 7.02

Measured pIC50 for this entry Cc1nc(NC(C)c2ccc(-c3ccccc3CN(C)C)s2)c2cc(N3CCN(C)CC3)ccc2n1 (centres unmarked) on human SOS1 (nucleotide exchange of K-Ras^G12C) (Homo sapiens): 7.54
